# ASSAY_EXPLANATION: amyloid nucleation score (Sup35N fusion, yeast selection) (log enrichment); library NNK2; higher = more nucleation; inactive = no reads after selection;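 note: zero at mode of non-aggregating sequences after 7 days selection at 30°C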
Would you mind telling me the reported amyloid nucleation score of each entry?
Answers are plain numbers.

[[record]]
substance = "AMWESLP"
observed_value = 1.41

[[record]]
substance = "FFMIEMPVKSTFVGWSRSEG"
observed_value = -0.074


Report amyloid nucleation score for every entry below.
1. LFGVYMLQVCVKNSKLSRSE
2. FEQRGVTSRLCSPLSYEERM
3. HGQISLRMWQVRR

1: -0.133; 2: -0.82; 3: 5.76

====

# ASSAY_EXPLANATION: amyloid nucleation score (Sup35N fusion, yeast selection) (log enrichment); library NNK1; higher = more nucleation; inactive = no reads after selection
Kindly return YES if reported amyloid nucleation score is no lower than 0.3; return NO if it is lower.

[[record]]
substance = "YLQLSRAVQRVLTRRWSSI"
label = "YES"

[[record]]
substance = "STKKLYTILRHWSYDFAESG"
label = "NO"

[[record]]
substance = "LVQESRHGLIRIRRVLLRIS"
label = "NO"

[[record]]
substance = "ILVTLHMTCLRRSRNTLSFY"
label = "NO"

[[record]]
substance = "HVLTQRRRMSFTVTRYHKRI"
label = "YES"

[[record]]
substance = "SSSFGHYDTWLYSSLFQGLT"
label = "YES"

[[record]]
substance = "EVSIFGDRIHIELHLVGEVL"
label = "NO"

[[record]]
substance = "SAGAYGVRGRGSTLMVVFEW"
label = "NO"

[[record]]
substance = "KRTESKLDYFKVRLCRTRFS"
label = "NO"

[[record]]
substance = "LPPARIFEGRSICYFVWYLP"
label = "NO"


Reported amyloid nucleation score reaches at least 0.3 for TCNNRSSSCR ?
YES

Reported amyloid nucleation score reaches at least 0.3 for LVNDPVFMGTWILSARICNV ?
YES

Reported amyloid nucleation score reaches at least 0.3 for MGYCIWFYLKSYH ?
NO

Reported amyloid nucleation score reaches at least 0.3 for RIAFFS ?
YES

====

# ASSAY_EXPLANATION: amyloid nucleation score (Sup35N fusion, yeast selection) (log enrichment); library NNK2; higher = more nucleation; inactive = no reads after selection
Kindly return Met if reported amyloid nucleation score is no lower than 0.8; return Not met if it is lower.

Example entries begin here.
[[record]]
sequence_record = "PGYSSNSCERDLLGRASVWL"
label = "Not met"

[[record]]
sequence_record = "SVRAVRMWIMDRNAARRMSG"
label = "Met"


Reported amyloid nucleation score reaches at least 0.8 for SLTTLCNLTIWDH ?
Not met

Reported amyloid nucleation score reaches at least 0.8 for FMPSVFMYSLVVFRYVVYMS ?
Not met

Reported amyloid nucleation score reaches at least 0.8 for VWQVERVTIFLGFVKNLGLV ?
Met

Reported amyloid nucleation score reaches at least 0.8 for LNGSADTLD ?
Not met

Reported amyloid nucleation score reaches at least 0.8 for CSHPFDYVQTILRTVTLFLI ?
Not met

====

# ASSAY_EXPLANATION: amyloid nucleation score (Sup35N fusion, yeast selection) (log enrichment); library NNK2; higher = more nucleation; inactive = no reads after selection
Would you mind telling me the reported amyloid nucleation score of each entry?
One number for each entry.

[[record]]
substance = "FYSLTDPCICGCH"
observed_value = -0.341

[[record]]
substance = "VRGYCGFALQLVRCEWRICS"
observed_value = 7.27

[[record]]
substance = "REDRNATLCIVV"
observed_value = 2.67

[[record]]
substance = "PDRSTFRVYSLHWTFCEHRC"
observed_value = 3.74

[[record]]
substance = "HAFRDIMYTVTRSWAKRWFY"
observed_value = 1.56

[[record]]
substance = "LGRWASGTAG"
observed_value = 0.558

[[record]]
substance = "CLNTLFVEFRCLSMGACCGI"
observed_value = 1.1

[[record]]
substance = "IDSYLNTSKASRVPCDLRAL"
observed_value = 0.67


Report amyloid nucleation score for every entry below.
1. QLIIMCVMGEQTICTVCHTG
2. LLTCEASRTPARSQLLASEG
3. RDWRANGSCHESSSGLDM
4. GMCYGGKFDY
5. AYKNYIPVVSVH
6. EWLTLTDIFT
7. GGDAYGRINAASYARIPRLS

7.15
0.851
1.6
-0.356
-1.37
-0.619
0.902

Report amyloid nucleation score for every entry below.
1. MSNDRDVVKVWFFPYDPHQS
2. GTHPCLQVCDDRGDWLLA
3. DSKWIM

1: -0.378; 2: 0.868; 3: -0.326

Report amyloid nucleation score for every entry below.
1. KPLLVN
2. KTPVGYTRRGSPFTR
3. LLDYLYDIGRHTKGK
4. MANVADMIVDGLM

0.271
1.16
-0.337
0.525

====

# ASSAY_EXPLANATION: amyloid nucleation score (Sup35N fusion, yeast selection) (log enrichment); library NNK1; higher = more nucleation; inactive = no reads after selection
MEASURED_QUANTITY: amyloid nucleation score
Numbers only.

[[record]]
substance = "DFVRRSNRYRYIVKIV"
observed_value = 0.203

[[record]]
substance = "WLDRGW"
observed_value = 0.282

[[record]]
substance = "TTWVVFFEPGAV"
observed_value = -0.297


Now look at this entry.
Identify measured amyloid nucleation score corresponding to TFVCIMFLDSSFSSENYGRL
1.7

====

# ASSAY_EXPLANATION: amyloid nucleation score (Sup35N fusion, yeast selection) (log enrichment); library NNK3; higher = more nucleation; inactive = no reads after selection
MEASURED_QUANTITY: amyloid nucleation score
Give bare numbers.

[[record]]
sequence_record = "TLNIFVVSFNDYWVSVIIKD"
measured_quantity = "amyloid nucleation score"
observed_value = 2.46


Now look at this entry.
Identify measured amyloid nucleation score corresponding to TRNCGRSGYRL
1.13

====

# ASSAY_EXPLANATION: amyloid nucleation score (Sup35N fusion, yeast selection) (log enrichment); library NNK1; higher = more nucleation; inactive = no reads after selection
MEASURED_QUANTITY: amyloid nucleation score
One number for each entry.

Example results:
[[record]]
sequence_record = "HLRCCIKTLRVSHYGGPALR"
observed_value = -0.596

[[record]]
sequence_record = "SLNSTFFCIEISVDDIEVLQ"
observed_value = -0.609


Now look at this entry.
Identify measured amyloid nucleation score corresponding to NMLAQSRSSVIAPLRRVWPV
0.889

====

Would you mind telling me the reported amyloid nucleation score of each entry?
# ASSAY_EXPLANATION: amyloid nucleation score (Sup35N fusion, yeast selection) (log enrichment); library NNK2; higher = more nucleation; inactive = no reads after selection
Give bare numbers.

[[record]]
sequence_record = "SHGEKSVDDEGSGIGERWQC"
measured_quantity = "amyloid nucleation score"
observed_value = 1.27


Report amyloid nucleation score for every entry below.
1. ACVWNDIEGMNTFTVNSFFL
2. YMNQERVQTVFDSRICFRLH
3. YTDISCVLLGLG
4. RTDRLCARHLGLFDDTVPET
5. VYNSFSAFFYG
6. GLVGEGRACYVKHD

[3.39, -0.246, -1.76, 0.664, 7.05, 0.861]

====

# ASSAY_EXPLANATION: amyloid nucleation score (Sup35N fusion, yeast selection) (log enrichment); library NNK2; higher = more nucleation; inactive = no reads after selection
MEASURED_QUANTITY: amyloid nucleation score
Give bare numbers.

Example results:
[[record]]
substance = "AIIGKFVGVCCD"
measured_quantity = "amyloid nucleation score"
observed_value = -0.931

[[record]]
substance = "SKDLSISQWSLGWLCHVWHT"
measured_quantity = "amyloid nucleation score"
observed_value = -0.153

[[record]]
substance = "VHFCLKH"
measured_quantity = "amyloid nucleation score"
observed_value = 0.241

[[record]]
substance = "NVLRFSSTSLYGLAFLAEGS"
measured_quantity = "amyloid nucleation score"
observed_value = -0.577


Report amyloid nucleation score for every entry below.
1. IRLLCHAVENCGTQRRLWGL
2. GFEWSLSRIDLCSGFGLGAG
3. PREKLYITMNMADIGSSRHP
4. DVYSSVRVNYT

1. 0.329
2. 1.24
3. 4.86
4. -0.386

Identify measured amyloid nucleation score corresponding to RVSHEHVYLSNFVTPWLCYY
5.91

====

# ASSAY_EXPLANATION: amyloid nucleation score (Sup35N fusion, yeast selection) (log enrichment); library NNK1; higher = more nucleation; inactive = no reads after selection
MEASURED_QUANTITY: amyloid nucleation score

Example results:
[[record]]
sequence_record = "LRSNHWNHTCLHNIRGCS"
observed_value = 3.42

[[record]]
sequence_record = "SRRFYLTPELPVTHVCCVGK"
observed_value = 1.03

[[record]]
sequence_record = "MRCSDFELMWFQIDDKYVDN"
observed_value = -0.201

[[record]]
sequence_record = "LLVVVTLAI"
observed_value = 0.89

[[record]]
sequence_record = "DFSSNDGWV"
observed_value = 0.444

[[record]]
sequence_record = "EYLAFDVPNWVGFLGSLWNM"
observed_value = -0.064


Now look at this entry.
Identify measured amyloid nucleation score corresponding to ATCLLAFMNFVSILERRSES
1.86

Values were extracted from the supplement of paper PMC12042874.
